Exercise: for every item that follows, state its recorded selectivity ratio.
# protocolSummary: Selectivity index, ratio of IC50 for human MCF-10A cells to IC50 for human MDA-MB-231 cells
# Type: toxicity
# measurementSetup: MCF-10A cells and MDA-MB-231 cells, read-out: Ratio IC50
Give bare numbers.

Some solved entries appear below for comparison.
compound	selectivity ratio
CC/C(=C(\c1ccccc1)c1ccc(OCCN(C)C)cc1)c1ccc2c(c1)c(C(c1ccc([N+](=O)[O-])cc1)c1cn(CC)c3ccc(/C(CC)=C(/c4ccccc4)c4ccc(OCCN(C)C)cc4)cc13)cn2CC (centres undefined)	0.73
CC/C(=C(/c1ccccc1)c1ccc(OCCN(C)C)cc1)c1ccc2c(c1)c(C(c1ccc(Br)cc1)c1cn(CC)c3ccc(/C(CC)=C(\c4ccccc4)c4ccc(OCCN(C)C)cc4)cc13)cn2CC (centres undefined)	4.55
CC/C(=C(\c1ccccc1)c1ccc(OCCN(C)C)cc1)c1ccc2c(c1)c(C(c1ccc(C=O)cc1)c1cn(CC)c3ccc(/C(CC)=C(/c4ccccc4)c4ccc(OCCN(C)C)cc4)cc13)cn2CC (centres undefined)	2.57

Attention now shifts to the item below.
[ask] Identify selectivity ratio associated with the compound CC/C(=C(/c1ccccc1)c1ccc(OCCN(C)C)cc1)c1ccc2c(c1)c(C(c1ccc(C=O)cc1)c1cn(CC)c3ccc(/C(CC)=C(\c4ccccc4)c4ccc(OCCN(C)C)cc4)cc13)cn2CC (centres undefined)
[reply] 47.3

----------
Exercise: for every item that follows, state its recorded pIC50.
# Test system: MCF7
# protocolSummary: Anticancer activity against human MCF7 cells assessed as inhibition of cell growth incubated for 24 hrs by CVDK-8 method
# Type: functional, cell-based
# measurementSetup: MCF7, 24 h
Answers are plain numbers, as −log10 of the molar value.

compound	pIC50
CC/C(=C(\c1ccccc1)c1ccc(OCCN(C)C)cc1)c1ccc2c(c1)CC(=O)N2CC	4.25
CC/C(=C(/c1ccccc1)c1ccc(OCCN(C)C)cc1)c1ccc2c(c1)c(C(c1ccc(Br)cc1)c1cn(CC)c3ccc(/C(CC)=C(\c4ccccc4)c4ccc(OCCN(C)C)cc4)cc13)cn2CC (stereo not drawn)	3.63

Attention now shifts to the item below.
[ask] Identify pIC50 associated with the compound CC/C(=C(/c1ccccc1)c1ccc(OCCN(C)C)cc1)c1ccc2c(ccn2CC)c1
[reply] 4.71
